# Tested on: 293-HEK cell line
# assayInfo: Extracellular vesicle output quantified by Bradford solution
# Type: cell-based, human
# experimentalSetup: solution of Example 1, peptide 40 μM
# Procedure: The 293-HEK cell line was cultured in a 6-well plate at a rate of 2×10^5 cells/mL, and the next day, the cell line was treated with the solution of Example 1 and a peptide of any one of SEQ ID NOs: 1 to 21. […], the solution was removed, followed by centrifugation at an RCF of 12000, and the extracellular vesicles were quantified using the supernatant by Bradford solution.
measuredAttribute: Amount of proteins contained in extracellular vesicles

Data request: # lookup: Amount of proteins contained in extracellular vesicles of KLNFAEFLRNLISKLF (TU166) [Noxa protein-derived derivative peptide, 16aa]
Data returned: 8.10 µg/µL

Data request: // next record KLNFRQKLLNLISKLF (eMTDdelta4) [eMTDΔ4, Noxa protein-derived peptide, 16aa]
Data returned: 7.56 µg/µL

Data request: How about this sequence: LRSLRDKLLNLISKLF (TU107) [Noxa protein-derived derivative peptide, 16aa]
Data returned: 7.45 µg/µL

Data request: What about LNFKWYSLLNLISKLF (TU172) [Noxa protein-derived derivative peptide, 16aa] ?
Data returned: 0.59 µg/µL

Data request: Also check KLLNLWSLLKGYTIK (TU124) [Noxa protein-derived derivative peptide, 15aa]
Data returned: 6.24 µg/µL

Data request: And then KLNFRLGLRSLREKLF (TU168) [Noxa protein-derived derivative peptide, 16aa] , what is it?
Data returned: 3.74 µg/µL

Data request: What about this sequence? AFFLRKLLNLISKLF (TU151) [Noxa protein-derived derivative peptide, 15aa]
Data returned: 1.40 µg/µL

Data request: Check AEYRKLLNLISKLF (TU128) [Noxa protein-derived derivative peptide, 14aa] too.
Data returned: 7.25 µg/µL

Data request: Repeat with KLNFRQKLARLLTKLF (TU171) [Noxa protein-derived derivative peptide, 16aa]
Data returned: 5.30 µg/µL

Data request: Repeat for the following sequence: YWLPLRKLLNLISKLF (TU146) [Noxa protein-derived derivative peptide, 16aa]
Data returned: 3.50 µg/µL

Data request: Another sequence: GLKSLRKLLNLISKLF (TU111) [Noxa protein-derived derivative peptide, 16aa]
Data returned: 6.44 µg/µL

Data request: Try this sequence too: MEWWYLLKLLNLISKLF (TU104) [Noxa protein-derived derivative peptide, 17aa]
Data returned: 1.02 µg/µL

Data request: Same thing, different sequence: QFAQYLRNLISKLF (TU155) [Noxa protein-derived derivative peptide, 14aa]
Data returned: 2.85 µg/µL

###

# Tested on: 293-HEK cell line
# assayInfo: Extracellular vesicle output quantified by Bradford solution
# Format: cell-based, human
# experimentalSetup: solution of Example 1, peptide 20 μM
Provide the reported Amount of proteins contained in extracellular vesicles of each item.
Your answer should be a plain number; it is taken to be in µg/µL.

Data request: What Amount of proteins contained in extracellular vesicles value was documented for this sequence, MEWWYLLKLLNLISKLF (TU104) [Noxa protein-derived derivative peptide, 17aa] ?
Data returned: 0.75

Data request: Here is the next sequence: KLNFAEFLRNLISKLF (TU166) [Noxa protein-derived derivative peptide, 16aa]
Data returned: 6.68

Data request: Now give it for KVSIFLKNLISKLF (TU156) [Noxa protein-derived derivative peptide, 14aa] too.
Data returned: 1.55

Data request: Next up: LNFKWYSLLNLISKLF (TU172) [Noxa protein-derived derivative peptide, 16aa]
Data returned: 0.44

###

# Test system: 293-HEK cell line
# assayInfo: Extracellular vesicle output quantified by Bradford solution
# Assay type: cell-based, human
# experimentalSetup: solution of Example 1, peptide 20 μM
Record form. Attribute: Amount of proteins contained in extracellular vesicles. Fill in for each entry.
# output: numeric value plus its unit

Data request: Which measured Amount of proteins contained in extracellular vesicles value corresponds to QFAQYLRNLISKLF (TU155) [Noxa protein-derived derivative peptide, 14aa] ?
Data returned: 1.77 µg/µL

Data request: Lookup AHFLRKLLNLISKLF (TU149) [Noxa protein-derived derivative peptide, 15aa]
Data returned: 2.00 µg/µL

Data request: Now consider KLNFRQKLARLLTKLF (TU171) [Noxa protein-derived derivative peptide, 16aa] and answer again.
Data returned: 3.62 µg/µL

Data request: Queued: AEYRKLLNLISKLF (TU128) [Noxa protein-derived derivative peptide, 14aa]
Data returned: 5.29 µg/µL

Data request: How about this sequence: AFFLRKLLNLISKLF (TU151) [Noxa protein-derived derivative peptide, 15aa]
Data returned: 1.30 µg/µL

Data request: Record: KLLNLWSLLKGYTIK (TU124) [Noxa protein-derived derivative peptide, 15aa]
Data returned: 5.02 µg/µL

Data request: And then GLKSLRKLLNLISKLF (TU111) [Noxa protein-derived derivative peptide, 16aa] , what is it?
Data returned: 4.98 µg/µL

Data request: Now the sequence LRSLRDKLLNLISKLF (TU107) [Noxa protein-derived derivative peptide, 16aa]
Data returned: 6.69 µg/µL

###

# System: 293-HEK cell line
# assayInfo: Extracellular vesicle output quantified by Bradford solution
# Format: cell-based, human
# experimentalSetup: solution of Example 1, peptide 20 μM
Decide using Amount of proteins contained in extracellular vesicles: a value greater than or equal to 3 µg/µL is 1, a smaller one is 0.

Data request: Item KLLNLISKLF [MTD] with Amount of proteins contained in extracellular vesicles of 3 µg/µL or above?
Data returned: 0

Data request: Try the sequence YWLPLRKLLNLISKLF (TU146) [Noxa protein-derived derivative peptide, 16aa]
Data returned: 0

Data request: Another sequence to check: KLNFRQKLLNLISKLF (eMTDdelta4) [eMTDΔ4, Noxa protein-derived peptide, 16aa]
Data returned: 1

Data request: Similarly, KLNFRLGLRSLREKLF (TU168) [Noxa protein-derived derivative peptide, 16aa] ?
Data returned: 0

Data request: Likewise for AEYSRKLLNLISKLF (TU135) [Noxa protein-derived derivative peptide, 15aa] ?
Data returned: 1

Data request: Would you mind doing KLLNLWSLLFGYTIK (TU103) [Noxa protein-derived derivative peptide, 15aa] as well?
Data returned: 0

###

# Test system: 293-HEK cell line
# assayInfo: Extracellular vesicle output quantified by Bradford solution
# Assay type: cell-based, human
# experimentalSetup: solution of Example 1, peptide 40 μM
Mark class 1 only when Amount of proteins contained in extracellular vesicles stays strictly below 4 µg/µL. Values equal to the cut-off are class 0.

Data request: Does KLLNLISKLF [MTD] have Amount of proteins contained in extracellular vesicles strictly under 4 µg/µL?
Data returned: class 1

Data request: Repeat for the following sequence: KLLNLWSLLFGYTIK (TU103) [Noxa protein-derived derivative peptide, 15aa]
Data returned: class 1

Data request: Entry AEYSRKLLNLISKLF (TU135) [Noxa protein-derived derivative peptide, 15aa] please
Data returned: class 0

Data request: Please give the result for AHFLRKLLNLISKLF (TU149) [Noxa protein-derived derivative peptide, 15aa] too.
Data returned: class 1
